Documented CC50 at 2 days across a set of compounds
Test name: Cytotoxicity in mock-infected cells of the antirhinoviral assay (XTT)
Type: cell-based
Cond: human, H1-HeLa cells, table line HRV-14
Readout label: CC50 at 2 days

[[record]]
input_smiles = "CCOC(=O)/C=C/[C@H](C[C@@H]1CCNC1=O)NC(=O)[C@H](Cc1ccccc1)NC(=O)c1ccc[nH]1"
readout_label = "CC50 at 2 days"
result = "> 100 µM"

[[record]]
input_smiles = "CCOC(=O)/C=C/[C@H](CCC(N)=O)NC(=O)[C@H](Cc1ccccc1)NC(=O)c1ccc(CCC(F)(F)F)[nH]1"
readout_label = "CC50 at 2 days"
result = "> 10 µM"

[[record]]
input_smiles = "O=C1OCC/C1=C\\[C@H](C[C@@H]1CCNC1=O)NC(=O)[C@H](Cc1ccc(F)cc1)NC(=O)c1ccc(-c2cccc3ccccc23)[nH]1"
readout_label = "CC50 at 2 days"
result = "> 10 µM"

[[record]]
input_smiles = "C#CC[C@H](NC(=O)c1ccc(-c2ccccc2C(F)(F)F)[nH]1)C(=O)N[C@H](/C=C/C(=O)OCC)CCC(N)=O"
readout_label = "CC50 at 2 days"
result = "> 10 µM"

[[record]]
input_smiles = "CCOC(=O)/C=C/[C@H](CCC(N)=O)NC(=O)[C@H](Cc1ccccc1)NC(=O)c1ccc(-c2ccncc2)[nH]1"
readout_label = "CC50 at 2 days"
result = "> 100 µM"

[[record]]
input_smiles = "CCOC(=O)/C=C/[C@H](CCC(N)=O)NC(=O)[C@H](Cc1ccccc1)NC(=O)c1ccc(-c2cccc3ccccc23)[nH]1"
readout_label = "CC50 at 2 days"
result = "> 10 µM"

[[record]]
input_smiles = "CCOC(=O)/C=C/[C@H](CCC(N)=O)NC(=O)CNC(=O)c1ccc(-c2ccccc2C(F)(F)F)[nH]1"
readout_label = "CC50 at 2 days"
result = "> 100 µM"

[[record]]
input_smiles = "CCC[C@H](NC(=O)c1ccc(-c2ccccc2C(F)(F)F)[nH]1)C(=O)N[C@H](/C=C/C(=O)OCC)CCC(N)=O"
readout_label = "CC50 at 2 days"
result = "> 10 µM"

[[record]]
input_smiles = "CCOC(=O)/C=C/[C@H](CCC(N)=O)NC(=O)[C@H](Cc1ccccc1)NC(=O)c1ccc(-c2ccccc2OC)[nH]1"
readout_label = "CC50 at 2 days"
result = "> 10 µM"

[[record]]
input_smiles = "CCOC(=O)/C=C/[C@H](C[C@@H]1CCNC1=O)NC(=O)[C@H](Cc1ccccc1)NC(=O)c1ccc(-c2ccccc2C(F)(F)F)[nH]1"
readout_label = "CC50 at 2 days"
result = "> 1 µM"

[[record]]
input_smiles = "CCOC(=O)/C=C/[C@H](C[C@@H]1CCNC1=O)NC(=O)[C@H](CC)CC(=O)c1ccc(-c2ccccc2C(F)(F)F)[nH]1"
readout_label = "CC50 at 2 days"
result = "> 10 µM"

